tested_target: HIV-1 pseudovirus Ce1176_A3 (HIV-1)
protocol: cell-based or functional assay
quantity_name: IC50 (neutralization in TZM.bl cells) (mg/L)
Kindly provide the numeric value in mg/L only, without the unit symbol.

// query Quote IC50 (neutralization in TZM.bl cells) reported for MS-76 (antibody, V domains shown) VH: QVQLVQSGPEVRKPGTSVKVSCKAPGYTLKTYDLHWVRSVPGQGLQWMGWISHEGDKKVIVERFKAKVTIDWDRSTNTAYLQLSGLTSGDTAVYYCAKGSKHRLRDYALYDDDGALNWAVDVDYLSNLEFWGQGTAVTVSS VL: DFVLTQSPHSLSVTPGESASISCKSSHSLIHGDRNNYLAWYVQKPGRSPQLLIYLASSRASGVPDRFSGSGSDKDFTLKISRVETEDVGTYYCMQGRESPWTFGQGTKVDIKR please.
// result 0.082

// query Retrieve IC50 (neutralization in TZM.bl cells) measured for MS-72 (antibody, V domains shown) VH: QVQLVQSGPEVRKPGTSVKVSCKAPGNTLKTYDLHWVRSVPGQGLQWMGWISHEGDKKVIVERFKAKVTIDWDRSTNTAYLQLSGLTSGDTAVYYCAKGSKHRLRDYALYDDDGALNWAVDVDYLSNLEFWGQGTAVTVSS VL: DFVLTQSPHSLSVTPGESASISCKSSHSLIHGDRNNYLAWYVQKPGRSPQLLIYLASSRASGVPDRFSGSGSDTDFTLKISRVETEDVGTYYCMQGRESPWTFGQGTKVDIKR and print it.
// result 0.074

// query Return value of IC50 (neutralization in TZM.bl cells) for input MS-78 (antibody, V domains shown) VH: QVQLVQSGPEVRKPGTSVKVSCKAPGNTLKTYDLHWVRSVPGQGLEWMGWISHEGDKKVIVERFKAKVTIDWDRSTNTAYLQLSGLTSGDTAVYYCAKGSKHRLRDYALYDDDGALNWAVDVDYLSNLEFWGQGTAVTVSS VL: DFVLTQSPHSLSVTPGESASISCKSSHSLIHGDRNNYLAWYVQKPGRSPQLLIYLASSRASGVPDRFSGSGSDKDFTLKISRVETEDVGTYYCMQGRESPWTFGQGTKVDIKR , no commentary.
// result 0.047

// query Determine from records and report IC50 (neutralization in TZM.bl cells) for MS-92 (antibody, V domains shown) VH: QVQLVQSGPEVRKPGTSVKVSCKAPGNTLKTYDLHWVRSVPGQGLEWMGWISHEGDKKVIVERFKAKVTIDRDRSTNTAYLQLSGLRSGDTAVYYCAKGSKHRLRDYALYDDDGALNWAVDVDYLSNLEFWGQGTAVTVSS VL: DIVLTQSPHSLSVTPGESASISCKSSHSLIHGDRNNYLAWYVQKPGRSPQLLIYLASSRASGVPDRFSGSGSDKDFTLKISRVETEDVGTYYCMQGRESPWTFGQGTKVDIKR
// result 0.6

// query Give a short answer stating reported IC50 (neutralization in TZM.bl cells) for MS-74 (antibody, V domains shown) VH: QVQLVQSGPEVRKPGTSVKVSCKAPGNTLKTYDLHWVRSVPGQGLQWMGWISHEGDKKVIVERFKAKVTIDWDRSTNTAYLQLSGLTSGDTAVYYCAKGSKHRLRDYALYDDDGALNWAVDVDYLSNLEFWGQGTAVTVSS VL: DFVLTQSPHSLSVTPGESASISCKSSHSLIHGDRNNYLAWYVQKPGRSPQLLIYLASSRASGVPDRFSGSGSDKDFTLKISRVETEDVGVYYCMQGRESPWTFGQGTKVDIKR .
// result 0.028

// query Please give the documented IC50 (neutralization in TZM.bl cells) of MS-75 (antibody, V domains shown) VH: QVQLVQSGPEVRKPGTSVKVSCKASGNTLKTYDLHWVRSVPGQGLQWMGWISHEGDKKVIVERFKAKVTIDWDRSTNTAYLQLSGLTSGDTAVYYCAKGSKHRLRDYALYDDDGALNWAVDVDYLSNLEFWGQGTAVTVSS VL: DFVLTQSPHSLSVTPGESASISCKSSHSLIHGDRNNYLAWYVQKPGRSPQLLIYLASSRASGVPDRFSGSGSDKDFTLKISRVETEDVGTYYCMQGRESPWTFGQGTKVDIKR
// result 0.139

// query Kindly indicate its recorded IC50 (neutralization in TZM.bl cells). Item: MS-88 (antibody, V domains shown) VH: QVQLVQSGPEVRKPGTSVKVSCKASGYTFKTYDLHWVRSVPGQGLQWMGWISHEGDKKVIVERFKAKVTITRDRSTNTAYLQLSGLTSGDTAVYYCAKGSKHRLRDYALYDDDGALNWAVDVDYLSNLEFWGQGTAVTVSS VL: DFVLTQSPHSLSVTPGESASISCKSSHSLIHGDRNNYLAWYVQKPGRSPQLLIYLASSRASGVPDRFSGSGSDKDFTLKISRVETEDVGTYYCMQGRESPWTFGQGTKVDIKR
// result 2.76

// query Return reported IC50 (neutralization in TZM.bl cells). Input binder: MS-80 (antibody, V domains shown) VH: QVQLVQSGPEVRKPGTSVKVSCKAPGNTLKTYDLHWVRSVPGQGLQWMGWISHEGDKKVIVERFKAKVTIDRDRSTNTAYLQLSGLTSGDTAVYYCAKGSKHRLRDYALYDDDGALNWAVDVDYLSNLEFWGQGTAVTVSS VL: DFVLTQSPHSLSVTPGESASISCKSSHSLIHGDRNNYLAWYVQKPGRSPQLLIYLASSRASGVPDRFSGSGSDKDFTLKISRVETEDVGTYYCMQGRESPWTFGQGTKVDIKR
// result 1.11

// query Provide measured IC50 (neutralization in TZM.bl cells) value, entry: MS-83 (antibody, V domains shown) VH: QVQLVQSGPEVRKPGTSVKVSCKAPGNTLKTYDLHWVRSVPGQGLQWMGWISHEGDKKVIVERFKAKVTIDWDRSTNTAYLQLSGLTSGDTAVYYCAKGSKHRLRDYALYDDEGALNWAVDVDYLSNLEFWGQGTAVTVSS VL: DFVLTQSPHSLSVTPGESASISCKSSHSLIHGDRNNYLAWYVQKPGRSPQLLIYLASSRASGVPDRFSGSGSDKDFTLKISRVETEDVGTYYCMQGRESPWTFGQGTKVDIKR
// result 0.029
